Hey, just so you know, these numbers are from patent US20260193272A1.

Consider the following compounds; for each one, report its IC50.
assay-system: PAD4 enzyme (Homo sapiens, UniProt Q9UM07)
Construct: PAD4 enzyme was diluted to 30 nM in Assay Buffer
Sequence (Q9UM07 whole entry): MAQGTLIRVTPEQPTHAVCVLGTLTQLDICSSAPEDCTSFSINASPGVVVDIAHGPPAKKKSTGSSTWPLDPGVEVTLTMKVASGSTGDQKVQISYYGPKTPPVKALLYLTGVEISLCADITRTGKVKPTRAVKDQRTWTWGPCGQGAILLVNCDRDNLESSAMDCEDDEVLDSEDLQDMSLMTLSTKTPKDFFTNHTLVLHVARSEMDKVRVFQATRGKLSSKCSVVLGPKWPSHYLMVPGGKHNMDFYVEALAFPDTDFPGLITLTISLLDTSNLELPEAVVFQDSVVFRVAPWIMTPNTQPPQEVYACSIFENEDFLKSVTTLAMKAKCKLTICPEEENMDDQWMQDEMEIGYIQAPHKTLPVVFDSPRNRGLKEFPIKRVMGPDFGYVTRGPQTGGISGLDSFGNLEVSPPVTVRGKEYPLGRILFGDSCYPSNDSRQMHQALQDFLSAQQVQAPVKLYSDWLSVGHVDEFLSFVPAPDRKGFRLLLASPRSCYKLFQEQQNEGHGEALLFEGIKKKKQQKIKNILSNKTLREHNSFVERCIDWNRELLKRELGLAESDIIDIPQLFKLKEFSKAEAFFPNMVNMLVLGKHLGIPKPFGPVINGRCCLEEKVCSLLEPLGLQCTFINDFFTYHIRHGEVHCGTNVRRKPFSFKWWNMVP
assay-summary: In-vitro measurement for enzymatic PAD4 citrullination inhibition activity (ammonia release)
Format: biochemical
measurement-conditions: read-out: IC50 of inhibition enzymatic activity of PAD4 (Colorimetric assays, Nature Chemical Biology, 2015, 11: 189-191)

Prompt: // fetch IC50 given entry "COc1cc(C(=O)N2CC[C@@H](O)[C@@H](N)C2)cc2nc(-c3cc4[se]c(C)nc4n3CC3CC3)n(C)c12"
Completion: 100 to 500 nM

Prompt: Look up and state reported IC50 for "CCc1nc2c(cc(-c3nc4cc(C(=O)N5C[C@H](N)CC[C@@H]5C)cc(OC)c4n3C)n2CC2CC2)[se]1"
Completion: ≤ 50 nM

Prompt: Item "COc1cc(C(=O)N2C[C@H]3CC[C@@H]2[C@@H]3N)cc2nc(-c3cc4[se]c(C)cc4n3CC3CC3)n(C)c12" : provide IC50
Completion: ≤ 50 nM

Prompt: Could you please provide reported IC50 for "COc1cc(C(=O)N[C@@H]2CC[C@H](C)NC2)cc2nc(-c3cc4cc[se]c4n3CC3CC3)n(C)c12" ? Thanks!
Completion: 100 to 500 nM

Prompt: Indicate the recorded IC50 value for this compound: "COc1ccccc1Cn1c(-c2nc3cc(C(=O)N4C[C@H](N)CC[C@@H]4C)cc(OC)c3n2C)cc2[se]c(C)nc21"
Completion: 100 to 500 nM

Prompt: Kindly indicate its recorded IC50. Item: "Cc1c(-c2cc3[se]c(-c4ccccn4)nc3n2CC2CC2)nn2cc(C(=O)N3C[C@H](N)CC[C@@H]3C)ccc12"
Completion: 100 to 500 nM
